# protocol: chemical genetic growth profiling, strain panel (AID 1159580);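 also: tested at 20 µM; growth read once vehicle control cultures reached saturation at 30 °C; 1 = growth at the plate median or of vehicle wells; lower values mean less growth of the strain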
# test_conditions: S. cerevisiae deletion strains, growth OD, strain TSCII, hits give low values
The whole screen tested about 5,500 compounds, of which about 2,000 (36%) were called active. Roughly 18% stayed inconclusive and do not appear here. The list shows a part of the results.
Catalogue of compounds with associated normalized growth

| compound | normalized growth |
| --- | --- |
| O=C1/C(=C/c2ccccn2)CCc2ccccc21 | 0.93 (inactive) |
| O=[N+]([O-])c1cc(Cl)cc([N+](=O)[O-])c1Nc1ccccc1 | 0.915 (inactive) |
| O=C1Nc2ccccc2/C1=C/c1ccc(C(F)(F)F)cc1Cl | 0.963 (inactive) |
| OC(COc1ccc(F)cc1)(c1ccccc1)c1ccccc1 | 0.957 (inactive) |
| CN(C)C=Nc1nnc(Sc2nc3c(Cl)cc(Cl)cc3s2)s1 | 0.957 (inactive) |
| Cc1c(C)c(C)c(C(O)c2ccccc2)c(C)c1C (stereo unspecified) | 1 (inactive) |
| CC(C)(C)C(=O)NC(=S)N/N=C\c1cc(Cl)cc(Cl)c1O | 0.768 (active) |
| O=C1Nc2ccccc2/C1=C/c1ccc(Oc2ccccc2)nc1 | 0.965 (inactive) |
| Oc1c(Br)cc(Br)cc1/C=N\n1cnnc1 | 0.938 (inactive) |
| CC(NC(=S)N/N=C\c1ccccc1O)c1ccccc1 (stereo unspecified) | 0.978 (inactive) |

# context switch: different compound, same normalized growth
Look up normalized growth of FC(F)(F)c1cccc(NC(=S)NN=C2CCCCCC2)c1 and report it.
0.982 (inactive)

---

# protocol: chemical genetic growth profiling, strain panel (AID 1159580);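 also: tested at 20 µM; growth read once vehicle control cultures reached saturation at 30 °C; 1 = growth at the plate median or of vehicle wells; lower values mean less growth of the strain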
# test_conditions: S. cerevisiae deletion strains, growth OD, locus YGR040W, strain KSS1
The whole screen tested about 5,500 compounds, of which about 2,000 (36%) were called active. Another 18% or so got no clear call; they are omitted. No stated cut-off is given here; in the data, active means normalized growth mostly below about 0.91 (no sharp cut-off); inconclusive means no clear call, values can overlap the other calls; inactive means mostly above about 0.92. The list shows a part of the results.
Write down the outcome that applies. Available outcomes: active, inactive

Worked examples, 5 compounds total:
| compound_structure_string | classification |
| --- | --- |
| Oc1c(Br)cc(Br)cc1/C=N\n1cnnc1 | active |
| CCNC(=S)N/N=C\c1cc(Cl)cc(Cl)c1O | inactive |
| COCCCNC(=S)N/N=C\c1cc(Cl)cc(Cl)c1O | inactive |
| Oc1c(Cl)cc(Cl)cc1/C=N\NC(=S)Nc1cc(C(F)(F)F)cc(C(F)(F)F)c1 | active |
| Oc1c(Br)cc(Br)cc1C=Nc1ccccn1 | active |

Consider now this further compound.
What outcome does the record of this test show for CC(C)(C)NC(=S)N/N=C\c1ccccc1O ?
inactive

---

Catalogue of molecules with associated normalized growth
# protocol: chemical genetic growth profiling, strain panel (AID 1159580);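 also: tested at 20 µM; growth read once vehicle control cultures reached saturation at 30 °C; 1 = growth at the plate median or of vehicle wells; lower values mean less growth of the strain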
# test_conditions: S. cerevisiae deletion strains, growth OD, locus YGL167C, strain pmr1, hits give low values
The campaign covered roughly 5,500 compounds. About 2,000 (36%) were called active. About 18% were inconclusive and are not listed. This is one part of the list.
Answer with the value's number alone.

Recorded normalized growth, per entry:
| molecule | normalized growth |
| --- | --- |
| OC1CC2CCCC(C1)N2Cc1ccccc1 (centres undefined) | 0.99 |
| O=C(Cc1cccs1)NC1C(=O)N2C(C(=O)[O-])=C(C[n+]3ccccc3)CSC12 (centres undefined) | 0.985 |
| CC1(C)C2CC(=O)[C@]3(C)C(CC[C@@]4(C)[C@H](c5ccoc5)OC(=O)[C@H]5O[C@]543)[C@@]2(C)C(=O)C[C@H]1O (some centres undefined) | 1.01 |
| CC1(C)O[C@H]2CC(=O)OC[C@]23[C@H]2CC[C@@]4(C)[C@H](c5ccoc5)OC(=O)[C@H]5O[C@]54[C@]2(C)C(=O)C[C@@H]13 | 0.975 |
| CCC(=O)c1c(O)cc(O)cc1O | 0.974 |
| COc1ccccc1/C=C\C(=O)O | 0.991 |
| CC1(C)C(=O)C=C[C@@]2(C)C1C[C@@H](O)[C@]1(C)C2CC[C@@]2(C)[C@H](c3ccoc3)OC(=O)[C@H]3O[C@]321 (some centres undefined) | 1.01 |
| Cc1cc(OC(=O)c2c(C)cc(O)cc2O)cc(O)c1C(=O)O | 0.972 |
| CC1(C)C=CC(=O)[C@@]2(C)C1CC(=O)[C@]1(C)C2CC[C@@]2(C)[C@H](c3ccoc3)OC(=O)C3OC321 (some centres undefined) | 0.991 |
| CC1(C)C2CC(=O)[C@]3(C)C(CC[C@@]4(C)[C@H](c5ccoc5)OC(=O)C5OC543)[C@@]2(C)[C@@H](O)C[C@H]1O (some centres undefined) | 1 |

Look up normalized growth of N#Cc1nn(-c2c(Cl)cc(C(F)(F)F)cc2Cl)c(N)c1S(=O)C(F)(F)F (centres undefined) and report it.
0.966

Look up normalized growth of CC1(C)C(=O)C=C[C@@]2(C)C1CC(=O)[C@]1(C)C2CC[C@@]2(C)[C@H](c3ccoc3)OC(=O)[C@H]3O[C@]321 (some centres undefined) and report it.
0.992

Look up normalized growth of O=C1[O][Bi][O]c2ccccc21 and report it.
1.03

Look up normalized growth of CC(=O)Oc1ccc2c(c1OC(C)=O)OCC1(O)Cc3c(cc(OC(C)=O)c(OC(C)=O)c3OC(C)=O)C21 (centres undefined) and report it.
0.995

The measurements presented in this section are drawn from PubChem BioAssay AID1159580.
